# targetSystem: UniProt P28564
# Sequence (P28564 whole entry): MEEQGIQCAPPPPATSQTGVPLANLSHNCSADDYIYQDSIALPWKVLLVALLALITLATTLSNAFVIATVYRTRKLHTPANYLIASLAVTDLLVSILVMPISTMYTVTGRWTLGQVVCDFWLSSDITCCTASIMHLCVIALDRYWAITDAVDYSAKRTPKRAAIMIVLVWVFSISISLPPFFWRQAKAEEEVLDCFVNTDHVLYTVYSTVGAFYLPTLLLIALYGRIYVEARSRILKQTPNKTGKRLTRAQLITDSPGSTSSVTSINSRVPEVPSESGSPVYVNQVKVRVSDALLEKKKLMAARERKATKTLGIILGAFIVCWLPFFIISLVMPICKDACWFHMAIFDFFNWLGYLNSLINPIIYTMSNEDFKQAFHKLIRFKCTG
# assayComment: Inhibitory activity against 5-hydroxytryptamine 1B receptor of rat striatal membrane homogenate using [3H]5-HT as the radioligand.

- sampleSmiles: "CN(C)CCCOc1ccccc1O"
  targetSystem: "UniProt P28564"
  Ki: "> 10 µM"
- sampleSmiles: "CN(C)CCCNc1ccccc1"
  targetSystem: "UniProt P28564"
  Ki: "> 10 µM"
- sampleSmiles: "CN(C)CCCOc1ccccc1"
  targetSystem: "UniProt P28564"
  Ki: "> 10 µM"
- sampleSmiles: "COc1ccccc1OCCCN(C)C"
  targetSystem: "UniProt P28564"
  Ki: "> 10 µM"
- sampleSmiles: "CCCN(CCC)CCCOc1ccccc1"
  targetSystem: "UniProt P28564"
  Ki: "> 10 µM"
- sampleSmiles: "CCCCN(CCCC)CCCOc1cccc2ccccc12"
  targetSystem: "UniProt P28564"
  Ki: "5.65 µM"
- sampleSmiles: "CCCCN(CC)CCOc1cccc2ccccc12"
  targetSystem: "UniProt P28564"
  Ki: "1.1 µM"
- sampleSmiles: "CNCCCOc1ccccc1"
  targetSystem: "UniProt P28564"
  Ki: "3.1 µM"

All values here come from ChEMBL document CHEMBL1124632.
